# pSTAT3 (MFI) in CD8 T cells at 100 µM listing for each entry below
Target: T1, IL10Rα and IL2Rγ on human primary cells (CD8 T cells, CD4 T cells, monocytes) (human) (UniProt Q13651)
T1 sequence (looked up) 1: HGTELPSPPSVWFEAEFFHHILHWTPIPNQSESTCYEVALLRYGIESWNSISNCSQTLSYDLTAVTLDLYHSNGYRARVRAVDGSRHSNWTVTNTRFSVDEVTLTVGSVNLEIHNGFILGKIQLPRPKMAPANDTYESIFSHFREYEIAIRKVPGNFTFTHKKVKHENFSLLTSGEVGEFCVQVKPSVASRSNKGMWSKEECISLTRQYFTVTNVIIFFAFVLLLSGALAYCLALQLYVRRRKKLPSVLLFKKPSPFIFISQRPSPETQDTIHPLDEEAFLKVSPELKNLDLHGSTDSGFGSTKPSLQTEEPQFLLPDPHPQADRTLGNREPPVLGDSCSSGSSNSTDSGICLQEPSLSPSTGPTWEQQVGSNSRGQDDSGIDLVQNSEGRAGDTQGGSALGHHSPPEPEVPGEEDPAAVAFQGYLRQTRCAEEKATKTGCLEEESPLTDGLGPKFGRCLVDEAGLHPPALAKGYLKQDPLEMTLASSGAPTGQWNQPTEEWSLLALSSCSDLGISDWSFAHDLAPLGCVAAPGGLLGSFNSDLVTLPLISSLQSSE
T1 sequence (looked up) 2: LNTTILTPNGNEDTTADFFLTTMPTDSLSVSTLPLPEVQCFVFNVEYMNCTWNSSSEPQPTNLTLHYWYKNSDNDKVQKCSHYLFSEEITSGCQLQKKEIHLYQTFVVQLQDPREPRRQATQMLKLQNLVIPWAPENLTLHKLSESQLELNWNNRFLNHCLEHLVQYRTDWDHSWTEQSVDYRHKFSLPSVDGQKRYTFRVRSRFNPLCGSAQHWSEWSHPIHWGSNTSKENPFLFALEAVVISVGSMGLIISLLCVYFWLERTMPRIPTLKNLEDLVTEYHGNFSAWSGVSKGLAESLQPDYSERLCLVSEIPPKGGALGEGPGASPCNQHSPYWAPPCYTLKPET
Test: cell-based or functional assay
READOUT: pSTAT3 (MFI) in CD8 T cells at 100 µM

1. hIL10Ra_VHH14-hIL2Rg_VHH19, no linker, tag his (bispecific antibody, not shown: small tags and cut ends) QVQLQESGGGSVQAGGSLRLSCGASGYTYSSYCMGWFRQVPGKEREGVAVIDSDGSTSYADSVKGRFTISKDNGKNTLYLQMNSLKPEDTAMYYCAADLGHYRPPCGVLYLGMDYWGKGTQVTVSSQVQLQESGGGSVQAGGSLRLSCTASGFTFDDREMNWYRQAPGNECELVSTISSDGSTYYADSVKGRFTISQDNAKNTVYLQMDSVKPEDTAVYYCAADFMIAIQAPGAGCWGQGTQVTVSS | 6200
2. hIL10Ra_VHH14-hIL2Rg_VHH19, linker GGGSGGGS, tag his (bispecific antibody, not shown: small tags and cut ends) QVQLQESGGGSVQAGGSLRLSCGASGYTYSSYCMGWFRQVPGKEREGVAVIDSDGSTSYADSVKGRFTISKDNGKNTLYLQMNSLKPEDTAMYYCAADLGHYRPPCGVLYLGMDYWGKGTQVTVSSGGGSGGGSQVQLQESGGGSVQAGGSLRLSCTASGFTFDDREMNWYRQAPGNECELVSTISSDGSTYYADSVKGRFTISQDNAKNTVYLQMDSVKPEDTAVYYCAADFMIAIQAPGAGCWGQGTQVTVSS | 7970
3. hIL10Ra_VHH14-hIL2Rg_VHH19, linker GS, tag his (bispecific antibody, not shown: small tags and cut ends) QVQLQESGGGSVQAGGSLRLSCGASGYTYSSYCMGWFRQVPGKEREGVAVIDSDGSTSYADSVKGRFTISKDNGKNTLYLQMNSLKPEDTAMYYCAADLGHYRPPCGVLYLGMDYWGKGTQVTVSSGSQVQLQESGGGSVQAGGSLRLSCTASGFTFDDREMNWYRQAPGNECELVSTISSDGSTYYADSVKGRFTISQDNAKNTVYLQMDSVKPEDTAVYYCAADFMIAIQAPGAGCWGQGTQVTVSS | 7900

Where these numbers come from: patent US20250163162A1
